Biological target: Melanocortin receptor 5 (Homo sapiens, UniProt P33032); also: in other assays of this panel Not Active means under 50% inhibition at 10 µM
Sequence (P33032 whole entry): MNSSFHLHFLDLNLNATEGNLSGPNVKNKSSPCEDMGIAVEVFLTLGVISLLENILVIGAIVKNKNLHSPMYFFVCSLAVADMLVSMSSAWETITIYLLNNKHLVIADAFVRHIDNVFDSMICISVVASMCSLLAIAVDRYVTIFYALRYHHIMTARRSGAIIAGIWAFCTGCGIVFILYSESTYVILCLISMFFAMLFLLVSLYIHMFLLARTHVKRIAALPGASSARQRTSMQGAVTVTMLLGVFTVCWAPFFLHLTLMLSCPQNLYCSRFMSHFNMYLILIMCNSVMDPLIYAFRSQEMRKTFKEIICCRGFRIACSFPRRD
Format: cell membranes, HEK293, Membrane
Conditions: read-out: IC50
pIC50: −log10 of the molar value.
property: pIC50

> print(dat)
                                   compound  observed.measurement
1  Clc1ccc(COC(Cn2ccnc2)c2ccc(Cl)cc2Cl)c(Cl)c1 (stereo unspecified) [MICONAZOLE]                  4.65

----------
Assay: DRUGMATRIX: Sodium/nucleoside co-transporter radioligand binding (ligand: nitrobenzylthioinosine)
Format: cell membranes, Cavia porcellus, Dunkin-Hartley, Cerebral cortex, Membrane
Conditions: Not Active = under 50% inhibition at 10 µM

compound	Ki
CN1CCN(CCCN2c3ccccc3Sc3ccc(C(F)(F)F)cc32)CC1 [TRIFLUOPERAZINE]	Not Active
Cc1c(O)cccc1C(=O)N[C@@H](CSc1ccccc1)[C@H](O)CN1C[C@H]2CCCC[C@H]2C[C@H]1C(=O)NC(C)(C)C	Not Active
C[S+](C)[O-] [DIMETHYL SULFOXIDE]	Not Active
CC(=N)S [THIOACETAMIDE]	Not Active
CC(=O)OCC(=O)[C@@]1(O)CC[C@H]2[C@@H]3CCC4=CC(=O)CC[C@]4(C)[C@@]3(F)[C@@H](O)C[C@@]21C [FLUDROCORTISONE ACETATE]	Not Active
CN(C)C(=N)NC(=N)N [METFORMIN]	Not Active
CCCCC1=NC2(CCCC2)C(=O)N1Cc1ccc(-c2ccccc2-c2nnn[nH]2)cc1 [IRBESARTAN]	Not Active
COc1ccc2c(c1OC)C(=O)O[C@@H]2[C@H]1c2c(cc3c(c2OC)OCO3)CCN1C [NOSCAPINE]	Not Active
C[C@]12CC[C@H]3[C@@H](CCC4=CC(=O)CC[C@@H]43)[C@@H]1CC[C@@H]2O [NANDROLONE]	Not Active
NC(=O)N1c2ccccc2CC(=O)c2ccccc21 [OXCARBAZEPINE]	Not Active
CCN(C(C)=O)c1cccc(-c2ccnc3c(C#N)cnn23)c1 [ZALEPLON]	Not Active
CC[C@H]1[C@@H]2C[C@H]3[C@@H]4N(C)c5ccccc5[C@]45C[C@@H]([C@@H]2[C@H]5O)N3[C@@H]1O [AJMALINE]	Not Active
CC(C)C[C@H]1C(=O)N2CCC[C@H]2[C@]2(O)O[C@](NC(=O)[C@@H]3C=C4c5cccc6[nH]cc(c56)C[C@H]4N(C)C3)(C(C)C)C(=O)N12 [ERGOCRYPTINE]	Not Active
O=C(O)CC(O)(CC(=O)O)C(=O)O [CITRIC ACID]	Not Active
O=C(O)CCNC(=O)c1ccc(/N=N/c2ccc(O)c(C(=O)O)c2)cc1 [BALSALAZIDE]	Not Active
CC(=O)OC[C@H]1O[C@@H](n2ncc(=O)[nH]c2=O)[C@H](OC(C)=O)[C@@H]1OC(C)=O [AZARIBINE]	Not Active

----------
Target: Melanocortin receptor 3 (Homo sapiens); also: in other assays of this panel Not Active means under 50% inhibition at 10 µM
Sequence (P41968 whole entry): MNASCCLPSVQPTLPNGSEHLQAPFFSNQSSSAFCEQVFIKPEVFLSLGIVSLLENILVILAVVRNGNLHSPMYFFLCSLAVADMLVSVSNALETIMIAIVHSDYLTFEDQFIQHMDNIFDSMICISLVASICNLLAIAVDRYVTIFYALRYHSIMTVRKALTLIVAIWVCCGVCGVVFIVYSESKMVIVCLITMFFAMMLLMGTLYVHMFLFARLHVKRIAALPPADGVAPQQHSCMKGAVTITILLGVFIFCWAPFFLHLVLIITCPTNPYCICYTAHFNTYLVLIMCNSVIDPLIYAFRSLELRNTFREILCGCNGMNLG
Format: cell membranes, Membrane
Conditions: hek293; read-out: IC50
property: IC50 (nM)

> print(dat)
   polymer.sequence  property  unit  observed.measurement
1          COLISTIN      IC50    nM                   193

----------
Reported pIC50 values follow for various molecules
Molecular target: Alpha-2C adrenergic receptor (Homo sapiens, UniProt P18825)
Assay: DRUGMATRIX: Adrenergic Alpha-2C radioligand binding (ligand: [3H] MK-912)
Assay type: cell membranes, Sf9, Membrane
Details: read-out: IC50
pIC50: −log10 of the molar value.
property: pIC50

> print(dat)
                                   molecule  observed.measurement
1  CCCCCCCCNC(C)C(O)c1ccc(SC(C)C)cc1 (centres undefined)                  5.46
2            CN(C)CCC=C1c2ccccc2CCc2ccccc21                  7.23
3  CC(C)C[C@H]1C(=O)N2CCC[C@H]2[C@]2(O)O[C@](NC(=O)[C@@H]3C=C4c5cccc6[nH]cc(c56)C[C@H]4N(C)C3)(C(C)C)C(=O)N12                  7.42
4  CCN(CC)CCCC(C)Nc1c2ccc(Cl)cc2nc2ccc(OC)cc12 (centres undefined)                  5.41

----------
Target: Alpha-2A adrenergic receptor (Homo sapiens); also: in other assays of this panel Not Active means under 50% inhibition at 10 µM
Sequence (P08913 whole entry): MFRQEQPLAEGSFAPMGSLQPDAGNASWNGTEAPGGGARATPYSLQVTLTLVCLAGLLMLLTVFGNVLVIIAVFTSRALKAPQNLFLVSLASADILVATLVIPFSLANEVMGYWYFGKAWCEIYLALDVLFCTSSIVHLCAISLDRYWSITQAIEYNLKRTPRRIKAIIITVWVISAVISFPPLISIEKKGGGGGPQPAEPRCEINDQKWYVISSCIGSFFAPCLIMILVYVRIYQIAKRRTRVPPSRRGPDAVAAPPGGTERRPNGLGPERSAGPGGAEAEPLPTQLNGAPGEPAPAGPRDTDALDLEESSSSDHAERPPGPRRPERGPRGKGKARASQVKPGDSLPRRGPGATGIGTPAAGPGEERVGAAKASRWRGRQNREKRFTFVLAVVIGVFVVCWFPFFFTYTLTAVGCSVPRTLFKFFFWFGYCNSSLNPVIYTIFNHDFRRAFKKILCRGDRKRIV
Format: cell membranes, Sf9, Membrane
Settings: sf9
property: IC50

> print(dat)
                         chemical.structure                           measured.target  observed.measurement
1  C[C@H]1COc2c(N3CCN(C)CC3)c(F)cc3c(=O)c(C(=O)O)cn1c23.C[C@H]1COc2c(N3CCN(C)CC3)c(F)cc3c(=O)c(C(=O)O)cn1c23.O  Alpha-2A adrenergic receptor (Homo sapiens)            Not Active
2           Cc1ccc(C)c(OCCCC(C)(C)C(=O)O)c1  Alpha-2A adrenergic receptor (Homo sapiens)            Not Active
3  C[C@]12C=CC(=O)C=C1CC[C@H]1[C@@H]3C[C@@H](O)[C@](O)(C(=O)CO)[C@@]3(C)C[C@H](O)[C@@]12F  Alpha-2A adrenergic receptor (Homo sapiens)            Not Active

----------
Test: DRUGMATRIX: Atrial Natriuretic Factor (ANF) radioligand binding (ligand: [125I] ANF (rat))
Format: cell membranes, Cavia porcellus, Dunkin-Hartley, Adrenal gland, Membrane
Conditions: Not Active = under 50% inhibition at 10 µM
property: IC50

compound	observed measurement
CC(C)C[C@H]1C(=O)N2CCC[C@H]2[C@]2(O)O[C@](NC(=O)[C@@H]3C=C4c5cccc6[nH]cc(c56)C[C@H]4N(C)C3)(C(C)C)C(=O)N12 [ERGOCRYPTINE]	Not Active
O=c1[nH]c(=O)n([C@H]2C[C@H](O)[C@@H](CO)O2)cc1F [FLOXURIDINE]	Not Active
C[C@]12CC[C@H]3[C@@H](CCC4=CC(=O)CC[C@@H]43)[C@@H]1CC[C@@H]2O [NANDROLONE]	Not Active
CC(=O)OC[C@H]1O[C@@H](n2ncc(=O)[nH]c2=O)[C@H](OC(C)=O)[C@@H]1OC(C)=O [AZARIBINE]	Not Active

----------
Target: Alpha-2C adrenergic receptor (Homo sapiens)
Sequence (P18825 whole entry): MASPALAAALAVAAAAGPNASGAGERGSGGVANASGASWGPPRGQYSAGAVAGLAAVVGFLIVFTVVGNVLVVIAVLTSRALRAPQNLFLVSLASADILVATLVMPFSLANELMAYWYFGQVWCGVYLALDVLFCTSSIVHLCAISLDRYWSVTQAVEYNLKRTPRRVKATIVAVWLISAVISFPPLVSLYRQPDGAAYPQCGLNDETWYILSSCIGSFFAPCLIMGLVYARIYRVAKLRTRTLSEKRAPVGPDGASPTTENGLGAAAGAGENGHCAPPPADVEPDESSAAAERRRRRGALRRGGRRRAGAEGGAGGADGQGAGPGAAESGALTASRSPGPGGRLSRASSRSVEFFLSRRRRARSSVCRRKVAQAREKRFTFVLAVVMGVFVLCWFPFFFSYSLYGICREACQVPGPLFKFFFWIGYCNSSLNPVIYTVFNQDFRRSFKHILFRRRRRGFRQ
Assay: DRUGMATRIX: Adrenergic Alpha-2C radioligand binding (ligand: [3H] MK-912)
Type: cell membranes, Sf9, Membrane
Conditions: sf9

molecule	IC50
COc1ccnc(C[S+]([O-])c2nc3ccc(OC(F)F)cc3[nH]2)c1OC (stereo not drawn)	Not Active
C[C@]12CC[C@H]3[C@@H](CCC4=CC(=O)CC[C@@H]43)[C@@H]1CC[C@@H]2O	Not Active
O=C(O)CCCCC1CCSS1 (stereo not drawn)	Not Active
O=C(O)COc1ccc(C(=O)c2cccs2)c(Cl)c1Cl	Not Active
C[N+](C)(C)CCOC(=O)CCC(=O)OCC[N+](C)(C)C.[Cl-].[Cl-] [SUCCINYLCHOLINE CHLORIDE]	Not Active
CC(C)NCC(O)c1ccccc1Cl (stereo not drawn)	Not Active
COc1ccc2c(c1OC)C(=O)O[C@@H]2[C@H]1c2c(cc3c(c2OC)OCO3)CCN1C	Not Active
CCc1ccc(CCOc2ccc(CC3SC(=O)NC3=O)cc2)nc1 (stereo not drawn)	Not Active
COc1cccc2c1C(=O)c1c(O)c3c(c(O)c1C2=O)C[C@@](O)(C(C)=O)C[C@@H]3O[C@H]1C[C@H](N)[C@H](O)[C@H](C)O1	Not Active
Cc1cccc(C)c1NC(=O)C1CCCCN1C (stereo not drawn) [MEPIVACAINE]	Not Active
CC(C)NC[C@H](O)COc1cccc2ccccc12	Not Active
COc1cc(OC)c(C(=O)CCCN2CCCC2)c(OC)c1	Not Active
C[S+]([O-])c1ccc(-c2nc(-c3ccncc3)c(-c3ccc(F)cc3)[nH]2)cc1 (stereo not drawn)	Not Active
CN(C)C(=O)Oc1cccc([N+](C)(C)C)c1.[Br-] [NEOSTIGMINE BROMIDE]	Not Active
CCN(C(C)=O)c1cccc(-c2ccnc3c(C#N)cnn23)c1	Not Active
CC1CCC(NC(=O)N(CCCl)N=O)CC1 (stereo not drawn)	Not Active
CCCNC(C)C(=O)Nc1ccccc1C (stereo not drawn)	Not Active
Cc1cc(O)cc(C)c1Cl	Not Active
C[C@]12C=CC(=O)C=C1CC[C@@H]1[C@@H]2C(=O)C[C@@]2(C)[C@H]1CC[C@]2(O)C(=O)CO	Not Active
COC(=O)[C@H]1[C@H]2C[C@@H]3c4[nH]c5cc(OC)ccc5c4CCN3C[C@H]2C[C@@H](OC(=O)c2cc(OC)c(OC)c(OC)c2)[C@@H]1OC	Not Active
C[C@@](Cc1ccc(O)c(O)c1)(NN)C(=O)O.O	Not Active
CC(C)NC[C@@H](O)COc1cccc2ccccc12	Not Active
C[C@@H]1O[C@@H](O[C@H]2C[C@@H](O)[C@]3(CO)[C@H]4[C@H](O)C[C@]5(C)[C@@H](C6=CC(=O)OC6)CC[C@]5(O)[C@@H]4CC[C@]3(O)C2)[C@H](O)[C@H](O)[C@H]1O	Not Active
Cc1c(O)cccc1C(=O)N[C@@H](CSc1ccccc1)[C@H](O)CN1C[C@H]2CCCC[C@H]2C[C@H]1C(=O)NC(C)(C)C	Not Active
CCCCC(=O)N(Cc1ccc(-c2ccccc2-c2nnn[nH]2)cc1)[C@H](C(=O)O)C(C)C	Not Active
C#C[C@]1(O)CC[C@H]2[C@@H]3CCC4=CC(=O)CC[C@]4(C)[C@H]3CC[C@@]21C	Not Active
O=C1C[C@@H]2OCC=C3CN4CC[C@]56c7ccccc7N1[C@H]5[C@H]2[C@H]3C[C@H]46	Not Active
CC(=O)OCC(=O)[C@@]1(O)CC[C@H]2[C@@H]3CCC4=CC(=O)CC[C@]4(C)[C@@]3(F)[C@@H](O)C[C@@]21C [FLUDROCORTISONE ACETATE]	Not Active
Oc1ccc2c3c1O[C@H]1[C@@H](O)CC[C@@]4(O)[C@@H](C2)N(CC2CCC2)CC[C@]314	Not Active
CC(O)(P(=O)(O)O)P(=O)(O)O	Not Active
CN1CCN(CCCN2c3ccccc3Sc3ccc(C(F)(F)F)cc32)CC1	Not Active
CN1C(=O)CN=C(c2ccccc2)c2cc([N+](=O)[O-])ccc21	Not Active
Cn1c(=O)c2c(ncn2C)n(C)c1=O	Not Active

Data credit: ChEMBL document CHEMBL1909046
